TARGET OR SYSTEM: FKBP12 (Homo sapiens, UniProt P62942)
Sequence (P62942 whole entry, species assumed): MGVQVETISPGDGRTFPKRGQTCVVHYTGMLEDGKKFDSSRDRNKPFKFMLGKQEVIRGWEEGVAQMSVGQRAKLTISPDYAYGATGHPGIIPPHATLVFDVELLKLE
ASSAY EXPLANATION: FKBP12 binding assay (inhibition of rotomase activity)
Type: biochemical
EXPERIMENTAL CONDITIONS: apparent Ki
Description: Preferably, the assay measures inhibition of FKBP12 rotomase activity. Such an assay has also been described by M. W. Harding et al., supra and by J. J. Siekierka et al., supra. […] Release of p-nitroanilide is measured. The inhibition of FKBP rotomase activity by the preferred FKBP12 binding compounds present in the compositions of this invention was assayed. […] Release of p-nitroanilide was measured spectrophotometrically. […]
Listed here: items and their measured pKi.
pKi (log units): -log10 of the concentration in mol/L.

Completed entries (count: 2):
COMPOUND	TARGET OR SYSTEM	pKi
CCC/C=C(/C)c1cncc([C@@H](CCN2CCOCC2)OC(=O)[C@@H]2CCCCN2C(=O)C(=O)[C@@H]2C[C@H](C(C)(C)OC)CC[C@H]2C)c1	FKBP12 (Homo sapiens, UniProt P62942)	6.50
CCC/C(=C/COC)c1cncc([C@@H](CCN2CCOCC2)OC(=O)[C@@H]2CCCCN2C(=O)C(=O)[C@@H]2CCCC[C@H]2C)c1	FKBP12 (Homo sapiens, UniProt P62942)	6.82

Query :: Determine from records and report pKi for COCc1cccc(COC)c1-c1cncc([C@H](OC(=O)[C@@H]2CCCCN2C(=O)C(=O)c2ccco2)/C(C)=C/[C@H]2CC[C@H](O)CC2)c1
Result :: 7.17

Query :: Return the recorded pKi value; entry: CCOCc1cc2ccccc2n1-c1cccc([C@H](OC(=O)[C@@H]2CCCCN2C(=O)C(=O)C2(O)CCOCC2)/C(C)=C/[C@H]2CC[C@H](O)CC2)c1 [Compound 57]
Result :: 6.03

Query :: Answer with the recorded pKi for the compound listed here: COc1ccc(C(=O)C(=O)N2CCCC[C@H]2C(=O)O[C@@H](CCCc2ccccc2)c2cncc(-c3ccccc3OC)c2)cc1OC
Result :: 7.92

Query :: Specify measured pKi for COC/C=C(\c1cncc([C@@H](CCN2CCOCC2)OC(=O)[C@@H]2CCCCN2C(=O)C(=O)[C@@H]2C[C@H](C(C)(C)OC)CC[C@H]2C)c1)C(C)C .
Result :: 6.00

Query :: // fetch pKi given entry CCC/C=C(/c1ccc(C)cc1)c1cncc([C@@H](OC(=O)[C@@H]2CCCCN2C(=O)C(=O)c2ccc(F)cc2)/C(C)=C/[C@H]2CC[C@H](O)CC2)c1
Result :: 7.15

Query :: Return the recorded pKi value; entry: CCC/C=C(/c1cccnc1)c1cccc([C@H](CCN2CCOCC2)OC(=O)[C@@H]2CCCCN2C(=O)C(=O)c2cc(OC)c(OC)c(OC)c2)c1
Result :: 6.59

Query :: Please indicate pKi recorded for COC/C=C(\c1cncc([C@@H](CCN2CCOCC2)OC(=O)[C@@H]2CCCCN2C(=O)C(=O)[C@@H]2CCCC[C@H]2C)c1)C(C)C
Result :: 7.15

Query :: In one line, give reported pKi of the entry CCCc1ccc(CCC)n1-c1cccc([C@H](CCN2CCOCC2)OC(=O)[C@@H]2CCCCN2C(=O)C(=O)C(C)(C)C(C)C)c1 .
Result :: 6.06

Query :: Determine from records and report pKi for C=CCC/C=C(/c1cccnc1)c1ccc([C@@H](CCN2CCOCC2)OC(=O)[C@@H]2CCCCN2C(=O)C(=O)C2(C)CCCCC2)s1
Result :: 7.55
